The entries below come with measured IC50 values attached.
- STUDY_TARGET: mouse IDO1 (Mus musculus)
- Construct: The murine PANC02 pancreatic ductal adenocarcinoma cell line was routinely maintained in DMEM media; endogenous in cells
- Sequence (P28776 whole entry): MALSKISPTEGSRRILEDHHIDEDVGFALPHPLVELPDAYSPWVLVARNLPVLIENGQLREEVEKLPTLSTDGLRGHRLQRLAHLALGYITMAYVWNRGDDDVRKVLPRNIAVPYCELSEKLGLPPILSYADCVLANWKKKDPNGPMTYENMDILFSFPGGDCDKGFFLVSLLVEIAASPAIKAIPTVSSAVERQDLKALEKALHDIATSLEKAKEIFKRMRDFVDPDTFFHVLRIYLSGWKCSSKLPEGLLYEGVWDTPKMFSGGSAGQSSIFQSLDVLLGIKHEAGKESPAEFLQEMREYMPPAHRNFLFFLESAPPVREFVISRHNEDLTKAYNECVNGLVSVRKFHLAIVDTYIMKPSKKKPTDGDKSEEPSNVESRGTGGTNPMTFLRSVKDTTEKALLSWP
- PROTOCOL_TEXT: Mouse IDO1 cell-based assay (PANC02 cells, mouse IFNgamma-induced, N-formylkynurenine/L-tryptophan by RFMS)
- CONDITION_NOTES: 30 ng/mL mouse IFNgamma, 48 hours
ENDPOINT: IC50

COMPOUND: CCC(NC(=O)c1ccc(Cl)cc1)[C@H]1[C@@H]2C[C@@H](n3nncc3C3CC3)C[C@@H]21 (stereo partly drawn)
RESULT: < 500 nM

COMPOUND: CCC(NC(=O)c1ccc(Cl)cc1)[C@H]1[C@@H]2C[C@@H](NC(=O)c3cn[nH]c3)C[C@@H]21 (stereo partly drawn)
RESULT: > 5000 nM

COMPOUND: CCC(NC(=O)c1ccc(Cl)cc1)[C@H]1[C@@H]2C[C@@H](n3ccc4cc(F)ccc43)C[C@@H]21 (stereo partly drawn)
RESULT: < 500 nM

---

- STUDY_TARGET: IDO1 (Homo sapiens)
- Construct: endogenous in cells
- PROTOCOL_TEXT: IDO1 cell-based assay (HeLa cells, IFNgamma-induced, N-formylkynurenine/L-tryptophan by RFMS)
- CONDITION_NOTES: 10 ng/mL IFNgamma, 24 hours

COMPOUND: CCC(NC(=O)c1ccc(Cl)cc1)C1C2CC(OCC3CCOCC3)CC21 (stereo not drawn)
IC50: < 0.2 µM
//
COMPOUND: CCC(NC(=O)c1ccc(Cl)cc1)[C@H]1[C@@H]2C[C@@H](NC(=O)N3CCNCC3)C[C@@H]21 (stereo partly drawn)
IC50: > 5 µM
//
COMPOUND: CCC(NC(=O)c1ccc(Cl)cc1)[C@H]1[C@@H]2C[C@H](NC(=O)c3nccc(C(F)(F)F)c3Cl)C[C@@H]21 (stereo partly drawn)
IC50: 0.2 to 2 µM

---

- STUDY_TARGET: IDO1 (Homo sapiens, UniProt P14902)
- Construct: endogenous in cells
- Sequence (P14902 whole entry): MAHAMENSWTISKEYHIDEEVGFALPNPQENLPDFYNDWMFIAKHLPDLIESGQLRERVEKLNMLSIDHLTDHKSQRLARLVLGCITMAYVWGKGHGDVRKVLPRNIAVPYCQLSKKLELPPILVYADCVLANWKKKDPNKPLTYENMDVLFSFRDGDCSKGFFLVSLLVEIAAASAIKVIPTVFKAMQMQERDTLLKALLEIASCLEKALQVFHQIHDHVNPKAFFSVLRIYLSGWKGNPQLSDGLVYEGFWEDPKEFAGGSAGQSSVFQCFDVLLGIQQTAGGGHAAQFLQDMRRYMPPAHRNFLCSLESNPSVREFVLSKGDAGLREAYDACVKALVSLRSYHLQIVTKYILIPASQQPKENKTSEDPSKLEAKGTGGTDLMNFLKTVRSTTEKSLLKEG
- PROTOCOL_TEXT: IDO1 cell-based assay (HeLa cells, IFNgamma-induced, N-formylkynurenine/L-tryptophan by RFMS)
- CONDITION_NOTES: 10 ng/mL IFNgamma, 24 hours
The entries below come with measured IC50 values attached.

COMPOUND: C#Cc1ccc2ncnc(N[C@@H]3C[C@@H]4[C@H](C3)[C@H]4[C@@H](CC)NC(=O)c3ccc(Cl)cc3)c2c1
IC50: < 200 nM
--
COMPOUND: C=C(C)c1cn([C@@H]2C[C@@H]3[C@H](C2)[C@H]3C(CC)NC(=O)c2ccc(Cl)cc2)nn1 (some centres unmarked) [Compound 147]
IC50: < 200 nM
--
COMPOUND: O=C(Nc1ccc(Cl)cc1)C1[C@H]2CC(Oc3ccnc4ccccc34)C[C@@H]12 (some centres unmarked)
IC50: 2000 to 5000 nM
--
COMPOUND: CCC(NC(=O)c1ccc(Cl)cc1)[C@H]1[C@@H]2C[C@@H](n3cc(NC(C)=O)nn3)C[C@@H]21 (some centres unmarked)
IC50: > 5000 nM
--
COMPOUND: CCC(NC(=O)c1ccc(Cl)cc1)[C@H]1[C@@H]2C[C@@H](n3cc(C(=O)O)nn3)C[C@@H]21 (some centres unmarked)
IC50: > 5000 nM
--
COMPOUND: CCOC(=O)C(C(=O)OCC)[C@@H]1C[C@@H]2[C@H](C1)[C@H]2[C@@H](CC)NC(=O)c1ccc(Cl)cc1
IC50: < 200 nM
--
COMPOUND: CCC(NC(=O)c1ccc(Cl)cc1)[C@H]1[C@@H]2C[C@@H](Oc3ccc(F)cc3)C[C@@H]21 (some centres unmarked)
IC50: < 200 nM
--
COMPOUND: CCC(NC(=O)c1ccc(Cl)cc1)[C@H]1[C@@H]2C[C@@H](Oc3nc4cc(F)ccc4[nH]3)C[C@@H]21 (some centres unmarked)
IC50: 200 to 2000 nM
--
COMPOUND: CCC(NC(=O)c1ccc(Cl)cc1)[C@H]1[C@@H]2C[C@H](NC(=O)c3ncccc3F)C[C@@H]21 (some centres unmarked)
IC50: < 200 nM
--
COMPOUND: CCC(NC(=O)c1ccc(C#N)cn1)C1C2CC(Oc3cnnc4ccccc34)CC21 (centres unmarked)
IC50: 200 to 2000 nM
--
COMPOUND: O=C(NC[C@@H]1[C@H]2C[C@H](n3cnc4cc(F)c(F)cc43)C[C@@H]12)c1cccc(Cl)c1
IC50: 200 to 2000 nM

---

- STUDY_TARGET: mouse IDO1 (Mus musculus)
- Construct: The murine PANC02 pancreatic ductal adenocarcinoma cell line was routinely maintained in DMEM media; endogenous in cells
- PROTOCOL_TEXT: Mouse IDO1 cell-based assay (PANC02 cells, mouse IFNgamma-induced, N-formylkynurenine/L-tryptophan by RFMS)
- CONDITION_NOTES: 30 ng/mL mouse IFNgamma, 48 hours
The entries below come with measured IC50 values attached.

COMPOUND: CCC(NC(=O)c1ccc(Cl)cc1)[C@H]1[C@@H]2C[C@H](n3nncc3C3CC3)C[C@@H]21 (some centres unmarked) [Compound 191]
IC50: 0.5 to 2 µM
--
COMPOUND: CCC(NC(=O)c1ccc(Cl)cc1)[C@H]1[C@@H]2C[C@@H](n3c(=O)[nH]c4ccccc43)C[C@@H]21 (some centres unmarked) [Compound 180]
IC50: 0.5 to 2 µM
--
COMPOUND: CCC(NC(=O)c1ccc(Cl)cc1)[C@H]1[C@@H]2C[C@@H](n3nc4ccc(Br)cc4n3)C[C@@H]21 (some centres unmarked) [Compound 179]
IC50: 2 to 5 µM
--
COMPOUND: CCC(NC(=O)c1ccc(Cl)cc1)[C@H]1[C@@H]2C[C@@H](n3ncc4ccc(F)cc43)C[C@@H]21 (some centres unmarked) [Compound 162]
IC50: 0.5 to 2 µM
--
COMPOUND: CCc1cnnn1[C@@H]1C[C@@H]2[C@H](C1)[C@H]2C(CC)NC(=O)c1ccc(Cl)cc1 (some centres unmarked) [Compound 165]
IC50: < 0.5 µM
